Catalogue of pIC50 values
- MEASURED TARGET: mGluR5 (Homo sapiens)
- Sequence (P41594 21-1212): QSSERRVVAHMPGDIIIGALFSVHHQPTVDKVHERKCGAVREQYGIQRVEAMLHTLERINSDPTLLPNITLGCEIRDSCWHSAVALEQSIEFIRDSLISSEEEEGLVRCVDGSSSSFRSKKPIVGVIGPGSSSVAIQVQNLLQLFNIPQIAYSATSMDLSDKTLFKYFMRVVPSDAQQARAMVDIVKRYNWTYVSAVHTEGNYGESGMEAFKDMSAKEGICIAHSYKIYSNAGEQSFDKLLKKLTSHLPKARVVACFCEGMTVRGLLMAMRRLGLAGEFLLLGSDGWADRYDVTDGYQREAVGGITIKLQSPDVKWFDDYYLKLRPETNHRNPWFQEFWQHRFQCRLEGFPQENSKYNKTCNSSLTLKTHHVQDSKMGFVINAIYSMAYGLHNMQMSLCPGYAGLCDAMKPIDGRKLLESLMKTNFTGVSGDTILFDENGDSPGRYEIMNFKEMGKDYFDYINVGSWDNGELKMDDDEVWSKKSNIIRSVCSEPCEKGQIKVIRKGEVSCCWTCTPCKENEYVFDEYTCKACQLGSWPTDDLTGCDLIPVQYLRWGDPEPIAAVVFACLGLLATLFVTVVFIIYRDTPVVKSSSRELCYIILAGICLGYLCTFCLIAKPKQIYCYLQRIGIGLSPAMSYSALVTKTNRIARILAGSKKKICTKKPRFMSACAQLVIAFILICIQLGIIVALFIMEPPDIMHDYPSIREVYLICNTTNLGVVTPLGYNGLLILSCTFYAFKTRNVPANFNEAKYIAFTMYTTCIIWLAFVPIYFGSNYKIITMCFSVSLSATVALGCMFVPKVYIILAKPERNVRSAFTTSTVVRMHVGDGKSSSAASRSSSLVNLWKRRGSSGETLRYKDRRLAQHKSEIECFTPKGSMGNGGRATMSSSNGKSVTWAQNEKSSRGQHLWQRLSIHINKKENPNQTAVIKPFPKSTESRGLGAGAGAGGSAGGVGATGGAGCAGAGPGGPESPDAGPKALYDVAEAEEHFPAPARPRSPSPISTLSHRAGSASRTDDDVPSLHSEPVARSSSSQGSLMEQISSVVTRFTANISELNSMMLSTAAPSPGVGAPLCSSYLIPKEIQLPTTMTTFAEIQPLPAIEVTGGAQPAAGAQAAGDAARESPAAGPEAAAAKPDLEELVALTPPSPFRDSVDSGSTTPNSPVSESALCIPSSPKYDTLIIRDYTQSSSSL
- ASSAY INFO: Fluorescence-based Ca2+ mobilization assay
- EXPERIMENTAL SETUP: HEK293 cells overexpressing mGluR5; L-glutamate at EC80
pIC50: −log10 of the molar value.

Below: 4 compounds and their reported pIC50.
Q: State its pIC50 on mGluR5 (Homo sapiens): O=C(NCC1(O)CCC1)c1ccc(C#Cc2ccccc2F)cc1 [Example 57]
Ans: > 7.00

Q: State its pIC50 on mGluR5 (Homo sapiens): O=C(NC[C@H]1CCOC1)c1ccc(C#Cc2ccc(F)cc2F)cc1 [Example 109]
Ans: 6.00 to 6.30

Q: State its pIC50 on mGluR5 (Homo sapiens): O=C(NCC1(NC2CC2)CCC1)c1ccc(C#Cc2ccccn2)cc1 [Example 8]
Ans: 6.00 to 6.30

Q: State its pIC50 on mGluR5 (Homo sapiens): O=C(NC[C@H]1CCCOC1)c1ccc(C#Cc2ccccc2F)cc1 [Example 92]
Ans: > 7.00

Lab note: next compound to report on.
Q: State its pIC50 on mGluR5 (Homo sapiens): CC1(CNC(=O)c2ccc(C#Cc3ccc(F)cc3)cc2)CCC1 [Example 106]
Ans: > 7.00
